Property: pEC50; scope: individual compounds
target: UniProt:O14842; assay: IP1 accumulation measurements using the IPOne assay system; settings: 1321N1 cells stably expressing human GPR40 receptor, 1 h stimulation
Sequence (O14842 whole entry): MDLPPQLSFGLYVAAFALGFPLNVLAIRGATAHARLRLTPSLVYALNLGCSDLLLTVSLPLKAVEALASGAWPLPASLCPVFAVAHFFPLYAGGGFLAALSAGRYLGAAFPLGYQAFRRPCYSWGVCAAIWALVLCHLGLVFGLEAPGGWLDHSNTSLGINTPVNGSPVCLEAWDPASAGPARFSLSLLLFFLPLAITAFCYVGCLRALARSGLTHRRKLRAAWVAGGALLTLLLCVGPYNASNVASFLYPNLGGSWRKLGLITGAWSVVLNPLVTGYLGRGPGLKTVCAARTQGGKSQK
pEC50: −log10 of the molar value.
QUANTITY NAME: pEC50

                                   compound             tgt  measured_number
0  CS(=O)(=O)CCCOc1cc(F)c(Oc2ccc(F)c3c2CC[C@H]3Oc2ccc3c(c2)OC[C@H]3CC(=O)O)cc1F [Example 39]  UniProt:O14842             7.64
1  CC(C)(O)CCCc1ccc(Oc2ccc(F)c3c2CC[C@H]3Oc2ccc3c(c2)OC[C@H]3CC(=O)O)c(C#N)c1 [Example 56]  UniProt:O14842             7.42
2  N#CCc1ccc(Oc2ccc(F)c3c2CC[C@H]3Oc2ccc3c(c2)OC[C@H]3CC(=O)O)cc1 [Example 60]  UniProt:O14842             7.70
3  CS(=O)(=O)CCCOc1c(F)cc(Oc2ccc(F)c3c2CC[C@H]3Oc2ccc3c(c2)OC[C@H]3CC(=O)O)cc1F [Example 19]  UniProt:O14842             7.92
